- System: Soli C2
- assay-text: Inhibition of amidolytic activity by synthetic inhibitors
- Type: biochemical, Solenopsis invicta
Where a SMILES comes first, the peptide text is derived from it. [ ]: non-standard residue; d: D form. The star is where a group is joined. Sta = CC(C)C[C@H](N)[C@@H](O)CC(=O)O; Isovaleryl = CC(C)CC(=O)*
attribute-measured: Inhibition of Soli C2 by class-specific proteinase inhibitors (in words)

[[record]]
molecule = "CC(C)CC(=O)N[C@H](C(=O)N[C@H](C(=O)N[C@@H](CC(C)C)[C@@H](O)CC(=O)N[C@@H](C)C(=O)N[C@@H](CC(C)C)[C@@H](O)CC(=O)O)C(C)C)C(C)C [Pepstatin] (Isovaleryl-VV[Sta]A[Sta]-OH)"
value_observed = "not"

[[record]]
molecule = "CC(C)C[C@H](NC(=O)[C@H]1O[C@@H]1C(=O)O)C(=O)NCCCCN=C(N)N (relative stereo) [E-64]"
value_observed = "not"

[[record]]
molecule = "O=C(O)CN(CCN(CC(=O)O)CC(=O)O)CC(=O)O [EDTA, ethylenediaminetetraacetate·2H2O]"
value_observed = "not"


----------
- experimental-target: Soli C1 (Solenopsis invicta)
- Construct: Fourth instar larvae were extracted in a 1:10 (weight/volume) ratio of 20 mM Tris-HCl pH 7.4; from tissue; host or cells: whole Solenopsis invicta 4th instar larvae (buffer extract, acetone precipitation, Q Sepharose peak III, Mono Q, Superdex 75)
- Sequence (Q7SIG2 whole entry): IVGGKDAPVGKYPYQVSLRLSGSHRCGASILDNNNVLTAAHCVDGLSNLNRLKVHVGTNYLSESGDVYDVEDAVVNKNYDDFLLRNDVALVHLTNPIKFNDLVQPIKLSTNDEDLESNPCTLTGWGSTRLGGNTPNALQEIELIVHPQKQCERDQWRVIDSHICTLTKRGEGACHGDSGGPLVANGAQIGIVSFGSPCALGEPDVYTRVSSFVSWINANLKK
- Type: biochemical
Where a SMILES comes first, the peptide text is derived from it. [ ]: non-standard residue; d: D form. The star is where a group is joined. Sta = CC(C)C[C@H](N)[C@@H](O)CC(=O)O; Isovaleryl = CC(C)CC(=O)*
attribute-measured: Inhibition of Soli C1 by class-specific proteinase inhibitors (in words)

[[record]]
compound = "CC(C)CC(=O)N[C@H](C(=O)N[C@H](C(=O)N[C@@H](CC(C)C)[C@@H](O)CC(=O)N[C@@H](C)C(=O)N[C@@H](CC(C)C)[C@@H](O)CC(=O)O)C(C)C)C(C)C [Pepstatin] (Isovaleryl-VV[Sta]A[Sta]-OH)"
experimental_target = "Soli C1 (Solenopsis invicta)"
value_observed = "not"

[[record]]
compound = "O=C(O)CN(CCN(CC(=O)O)CC(=O)O)CC(=O)O [EDTA, ethylenediaminetetraacetate·2H2O]"
experimental_target = "Soli C1 (Solenopsis invicta)"
value_observed = "not"

[[record]]
compound = "CC(C)C[C@H](NC(=O)[C@H]1O[C@@H]1C(=O)O)C(=O)NCCCCN=C(N)N (relative stereo) [E-64]"
experimental_target = "Soli C1 (Solenopsis invicta)"
value_observed = "not"


Data provenance is patent US6399759B1.
